target entity: AMPK
protocol details: AMPK activation, enzyme-linked immunosorbent assay
condition context: ELISA
Please go through the items and note down their EC50.

EC50 on AMPK for N#Cc1ccc(CN2CCC(NC(=O)c3ccc(C(=O)N4CCN(Cc5ccc(C(F)(F)F)cc5)CC4)cn3)CC2)cc1 [Compound 3] is < 0.5 µM

EC50 on AMPK for N#Cc1ccc(CN2CCC(NC(=O)c3ccc(C(=O)N4CCN(Cc5ccc(F)cc5)CC4)cn3)CC2)cc1 [Compound 2] is < 0.5 µM

EC50 on AMPK for O=C(NC1CCN(Cc2ccc(C(F)(F)F)cc2)C1)c1ccc(C(=O)N2CCN(c3ccc(Cl)cc3)CC2)cn1 (stereo not shown) [Compound 8] is 1 to 5 µM

EC50 on AMPK for N#Cc1ccc(CN2CC[C@H](NC(=O)c3ccc(C(=O)N4CCN(c5ccc(Cl)cc5)CC4)cn3)C2)cc1 [Compound 6] is 0.5 to 1 µM
